System: OVCAR-5 ovarian
Assay Info: NCI tumour cell line growth inhibition, 48 h; in the data active = GI50 below about 0.43 µM; inactive = the rest
Your reply should match one of these outcome classes. active, inactive

Record excerpt, results attached:
Molecule	Assigned Label
CCc1nc(-n2c(CC)nc3ccccc3c2=O)nc(N)c1-c1ccc(Cl)cc1	inactive
CC(C)(C)OC(=O)N1CC(Cn2cc(C(F)(F)F)c3c(Cl)ncnc32)C1	inactive
CCOC(=O)/C(=C/c1ccccc1)C(=O)c1ccccc1	inactive
NC(=O)c1ccc2nc(-c3ccc(C4(N)CCC4)cc3)c(-c3ccccc3)n2n1	inactive
FC(F)(F)c1[nH]ncc1-c1nc2c(N3CCCCC3)cc3[nH]ncc3c2c2c1CCCC2	inactive

Please turn your attention to the following entry.
Query string: Short answer needed: outcome of this test for C[C@H](C(=O)N[C@@H](Cc1ccc(-c2ccccc2)cc1)C(=O)NC1CC(C)(C)N(C)C(C)(C)C1)c1ccc(-c2ccccc2)c(F)c1 ?
Result string: inactive

###

Tested on: A498 renal
Assay Info: NCI tumour cell line growth inhibition, 48 h
Attribute Measured: TGI (µM)
Reply numerically in µM, unit not repeated.

Would you please look over these solved cases?
Compound	Value Reported
C=CC(=O)NCCOc1cccc(Nc2cc(NCCCNC(=O)C3CCC3)c(Br)cn2)c1	1.8
O=C(CCc1ccco1)NC1CCN(CC2(c3ccc(Cl)cc3)CCC2)CC1	11.9
OC12CC3c4ccccc4NC3C3Oc4cccc5c4C31CCN(CC1CC1)C2C5 (stereo unspecified)	32.2

Query string: // TGI lookup, key: FC(F)(F)c1[nH]ncc1-c1nc2c(N3CCCCC3)cc3[nH]ncc3c2c2c1CCCC2
Result string: 0.196

Query string: Also, Fc1c[c-]c(-c2ccccn2)c(F)c1.[CH3-].[Pt+2].c1ccc([PH+](c2ccccc2)c2ccccn2)cc1 please.
Result string: 4.06

Query string: Also, COc1ccc(OC)c(/C=C/C(=O)C(C)(C)C)c1 please.
Result string: 80

Query string: Also, COc1ccc2c(c1)CCC(CN1CCN(CCOC(c3ccc(F)cc3)c3ccc(F)cc3)CC1)C2O (stereo unspecified) please.
Result string: 19.9

Query string: Also, CSC1=Nc2c(c(C)c(-c3ccccc3)n2CCCCl)C2=NC(=O)CN12 please.
Result string: 15

Query string: Also, COc1cc(OC)cc(-n2c(N)c(-c3nc4ccccc4s3)c3ccc([N+](=O)[O-])cc3c2=O)c1 please.
Result string: 76.7

Query string: Also, CC(C)C(C/C=C1/CC(CO)(COC(=O)C(C)(C)C)OC1=O)C(C)C (stereo unspecified) please.
Result string: 21.8

###

Tested on: SNB-19 CNS
Assay Info: NCI tumour cell line growth inhibition, 48 h; in the data active = GI50 below about 0.43 µM; inactive = the rest
Your reply should match one of these outcome classes. Yes for active, No for inactive

Record excerpt, results attached:
Molecule	Assigned Label
O=C(Nc1ccc(Cl)cc1F)c1cc(F)ccc1O	No
COc1nc2c(cc1S(=O)(=O)c1ccccc1)CCc1c-2cnn1Cc1ccccc1	No
COc1ccc2[nH]c(-c3ccccc3)c(C=C(C#N)C#N)c2c1	No
Cc1cc(O)c(C2=NN(c3ccc(S(N)(=O)=O)cc3)C(c3ccccc3O)C2)cc1Cl (stereo unspecified)	No
NC(=O)c1ccc2nc(-c3ccc(C4(N)CCC4)cc3)c(-c3ccccc3)n2n1	No
CCN1CCC2(CC1)NC(=O)c1c(c3ccc(Cl)c(Cl)c3n1C)C2C#N (stereo unspecified)	No
C[n+]1c2cc(N)ccc2cc2ccc(N)cc21 (tested in a mixture with another compound)	No
COc1ccc(C2=CC(c3ccc(Oc4ccnc5cc(Cl)ccc45)c(OC)c3)c3c(nc(OC)[nH]c3=O)N2)cc1 (stereo unspecified)	No

Query string: Short answer needed: outcome of this test for COc1cc(-c2nc(-c3nnc(-c4ccc(F)c(Cl)c4)o3)c3ccccn23)cc(OC)c1OC ?
Result string: No

Query string: Also, COc1cc2cn3c4ccc(O)cc4nc(N)c3c2cc1OC please.
Result string: Yes

Query string: Also, O=C(C[C@@]1(O)C(=O)Nc2c(Cl)ccc(Cl)c21)c1ccc(C2CC2)cc1 please.
Result string: No

// provenance: PubChem BioAssay (NCI)
